Answer each item with its documented inhibition.
target: Cannabinoid receptor 1 (Homo sapiens); test: Displacement of [3H]CP55940 from beta-galactosidase reporter fused human CB1 receptor expressed in CHOK1 cell membranes at 1 uM after 1 hr by scintillation spectrometric analysis relative to control
Sequence (P21554 whole entry, the tested form may be a part): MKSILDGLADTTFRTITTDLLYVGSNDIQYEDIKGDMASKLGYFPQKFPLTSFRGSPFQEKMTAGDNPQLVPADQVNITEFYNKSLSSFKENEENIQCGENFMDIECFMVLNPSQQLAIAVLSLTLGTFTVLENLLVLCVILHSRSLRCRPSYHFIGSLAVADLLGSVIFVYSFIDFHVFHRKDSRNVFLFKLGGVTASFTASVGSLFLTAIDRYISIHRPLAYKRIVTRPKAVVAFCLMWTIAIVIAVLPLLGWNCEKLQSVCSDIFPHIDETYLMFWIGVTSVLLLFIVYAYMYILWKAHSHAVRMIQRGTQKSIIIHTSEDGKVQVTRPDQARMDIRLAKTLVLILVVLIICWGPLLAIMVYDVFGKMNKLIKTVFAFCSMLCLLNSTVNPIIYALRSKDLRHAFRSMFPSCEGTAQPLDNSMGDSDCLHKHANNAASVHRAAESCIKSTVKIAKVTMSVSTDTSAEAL
Form entry: value (%) — number only.

### Prompt Can you look up inhibition on Cannabinoid receptor 1 (Homo sapiens) for O=C(CCc1nnc(-c2ccc(F)cc2Br)o1)Nc1ccc2c(c1)c1ccccc1n2CCF ?
### Response 22

### Prompt Form: Entry = N#Cc1cc(F)ccc1-c1nnc(CCC(=O)Nc2ccc3c(c2)c2ccccc2n3CCF)o1 | System = Cannabinoid receptor 1 (Homo sapiens) | inhibition = ____
### Response -1

### Prompt Lookup: inhibition / Cannabinoid receptor 1 (Homo sapiens) / N#Cc1cc(F)ccc1-c1noc(CCC(=O)Nc2ccc3c(c2)c2ccccc2n3CCF)n1
### Response -8

### Prompt Which measured inhibition belongs to O=C(CCc1nc(-c2ccc(Br)cc2F)no1)Nc1ccc2c(c1)c1ccccc1n2CCF , tested on Cannabinoid receptor 1 (Homo sapiens)?
### Response -5

### Prompt I'm curious: which inhibition was measured for O=C(CCc1nnc(-c2ccc(Br)cc2F)o1)Nc1ccc2c(c1)c1ccccc1n2CCF tested on Cannabinoid receptor 1 (Homo sapiens)?
### Response -8
